# target_desc: rTAAR1(A5.42T) (Rattus norvegicus, UniProt Q923Y9, A193T)
# Sequence (Q923Y9 whole entry A193T): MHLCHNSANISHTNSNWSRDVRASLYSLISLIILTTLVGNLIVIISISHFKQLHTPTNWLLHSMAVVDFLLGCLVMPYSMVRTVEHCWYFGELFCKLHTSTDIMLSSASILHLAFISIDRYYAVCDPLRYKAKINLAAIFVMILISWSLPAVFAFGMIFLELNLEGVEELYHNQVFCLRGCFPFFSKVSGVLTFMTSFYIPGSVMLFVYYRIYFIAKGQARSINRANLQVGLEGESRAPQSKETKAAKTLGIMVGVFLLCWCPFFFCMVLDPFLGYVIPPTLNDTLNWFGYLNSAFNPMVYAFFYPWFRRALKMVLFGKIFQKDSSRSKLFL
# assay_text: cAMP agonist activity assay, rTAAR1
# Format: cell-based
measure: EC50

Query string: Param readout= EC50; system= rTAAR1(A5.42T) (Rattus norvegicus, UniProt Q923Y9, A193T); entry= NCCc1ccc(O)cc1 ; returns value.
Result string: > 10 µM

---

# target_desc: rTAAR1(A5.42L) (Rattus norvegicus, UniProt Q923Y9, A193L)
# assay_text: cAMP agonist activity assay, rTAAR1
# Type: cell-based
# test_conditions: read-out: EC50 ± SEM; rTAAR1 A5.42L (Table 3a)
measure: EC50 (µM)
Please give a number only; it is taken to be in µM.

Query string: Value lookup for EC50; key = NCCc1ccc(Oc2ccc(O)cc2)c(I)c1 [Compound 1, 3-Iodothyronamine]
Result string: 0.058
